Where these numbers come from: ChEMBL document CHEMBL4680134

Target: Multidrug efflux pump subunit AcrB (Escherichia coli (strain K12))
Test: Inhibition of AcrB in Escherichia coli BW25113 assessed as potentiation of tetraphenylphosphonium induced antibacterial activity by measuring tetraphenylphosphonium MIC at 64 ug/ml measured after 18 hrs by checkerboard titration method (reference value: 1024 ug/ml)
Conditions: dose 64.0 µg/ml
Reported Endpoint: MIC (µg/mL)

In [3]: df
Out[3]:
                                    molecule                         target_under_test  reported_endpoint  measured_number
 0      O=C(NCCc1ccc(O)c(O)c1)c1ccc(O)c(O)c1  Multidrug efflux pump subunit AcrB (Escherichia coli (strain K12))                MIC              512
 1             Oc1ccc(CCCc2ccc(O)c(O)c2)cc1O  Multidrug efflux pump subunit AcrB (Escherichia coli (strain K12))                MIC              512
 2         Oc1ccc(CCCCCCCc2ccc(O)c(O)c2)cc1O  Multidrug efflux pump subunit AcrB (Escherichia coli (strain K12))                MIC              512
 3           Nc1ccccc1C(=O)NCCc1ccc(O)c(O)c1  Multidrug efflux pump subunit AcrB (Escherichia coli (strain K12))                MIC             1020
 4          Oc1ccc(CCCCCCc2ccc(O)c(O)c2)cc1O  Multidrug efflux pump subunit AcrB (Escherichia coli (strain K12))                MIC              512
 5         Oc1ccc(CCCCc2cc(O)c(O)c(O)c2)cc1O  Multidrug efflux pump subunit AcrB (Escherichia coli (strain K12))                MIC              512
 6  C[C@H](Cc1ccc(O)c(O)c1)[C@@H](C)Cc1ccc(O)c(O)c1 [MASOPROCOL]  Multidrug efflux pump subunit AcrB (Escherichia coli (strain K12))                MIC             1020
 7         Nc1ccc(C(=O)NCCc2ccc(O)c(O)c2)cc1  Multidrug efflux pump subunit AcrB (Escherichia coli (strain K12))                MIC             1020
 8                 Oc1ccc(CCCCc2ccccc2O)cc1O  Multidrug efflux pump subunit AcrB (Escherichia coli (strain K12))                MIC              512
 9           Oc1ccc(CCCCCc2ccc(O)c(O)c2)cc1O  Multidrug efflux pump subunit AcrB (Escherichia coli (strain K12))                MIC             1020
10        O=C(NCCc1ccc(O)c(O)c1)c1ccc(Br)cc1  Multidrug efflux pump subunit AcrB (Escherichia coli (strain K12))                MIC             1020
11              Oc1ccc(CCCCc2ccc(Br)cc2)cc1O  Multidrug efflux pump subunit AcrB (Escherichia coli (strain K12))                MIC              512
12           O=C(NCCc1ccc(O)c(O)c1)c1ccccc1O  Multidrug efflux pump subunit AcrB (Escherichia coli (strain K12))                MIC              512
